target: histone deacetylase (HeLa nuclear extracts); assay: In vitro assay for inhibition of histone deacetylase with fluorescent-labelled substrate (C.1.b); format: biochemical; settings: Fluor de Lys substrate
Metric name: Enzymatic activity pIC50 C.1.b

Cc1ccc2c(c1)c(CNCC1CCN(c3ncc(C(=O)NO)cn3)CC1)cn2C = 8.7
Cn1cc(CNCC2CCN(c3ncc(C(=O)NO)cn3)CC2)c2cc(Cl)ccc21 = 8.0
COCCn1cc(CNCC2CCN(c3ncc(C(=O)NO)cn3)CC2)c2ccccc21 = 8.8
Cc1ccc2c(c1)c(CNCC1CCN(c3ncc(C(=O)NO)cn3)CC1)c(C)n2C = 8.3
O=C(NO)c1cnc(N2CCC(CNCc3c[nH]c4ccc(Br)cc34)CC2)nc1 = 8.5
CCCn1cc(CCNCC2CCN(c3ncc(C(=O)NO)cn3)CC2)c2ccc(OC)cc21 = 7.3
Cn1cc(CNCC2CCN(c3ncc(C(=O)NO)cn3)CC2)c2cc3c(cc21)OCO3 = 9.0
Cn1ccc2cccc(CNCC3CCN(c4ncc(C(=O)NO)cn4)CC3)c21 = 10.2
Cn1cc(CNCC2CCN(c3ncc(C(=O)NO)cn3)CC2)c2cc(C#N)ccc21 = 10.1
Cc1ccc2c(CNCC3CCN(c4ncc(C(=O)NO)cn4)CC3)cn(C)c2c1 = 8.4
CCn1c(C)c(CCNC2CCN(c3ncc(C(=O)NO)cn3)CC2)c2ccccc21 = 8.4
CN(CCc1cn(C)c2ccccc12)CC1CCN(c2ncc(C(=O)NO)cn2)CC1 = 8.5
CCn1cc(CNCC2CCN(c3ncc(C(=O)NO)cn3)CC2)c2ccc(OC)cc21 = 8.9
CCCn1cc(CNCC2CCN(c3ncc(C(=O)NO)cn3)CC2)c2cc3c(cc21)OCO3 = 9.0
Cn1ccc2ccc(CNCC3CCN(c4ncc(C(=O)NO)cn4)CC3)cc21 = 8.6
Cc1cccc2c(CNCC3CCN(c4ncc(C(=O)NO)cn4)CC3)c[nH]c12 = 8.4
Cc1[nH]c2ccccc2c1CCNCC1CCN(c2ncc(C(=O)NO)cn2)CC1 = 7.8

---

test system: A2780 ovarian carcinoma cells; experiment: Antiproliferative activity on A2780 cells, MTT (C.2); assay type: cell-based; conditions: Homo sapiens, 96 h, four days of incubation, read-out: Cellular activity pIC50 C.2 (converted)
Metric name: IC50 (nM)

CCn1c(C)c(CCNC2CCN(c3ncc(C(=O)NO)cn3)CC2)c2ccccc21 = 31.6
Cn1cc(CNCC2CCN(c3ncc(C(=O)NO)cn3)CC2)c2ccc(F)cc21 = 31.6

a. O=C(NO)c1cnc(N2CCC(CNCc3cn(CC4CC4)c4ccccc34)CC2)nc1
b. CCC(=O)N(CCc1cn(C)c2ccccc12)CC1CCN(c2ncc(C(=O)NO)cn2)CC1
c. Cn1cc(CCNCC2CCN(c3ncc(C(=O)NO)cn3)CC2)c2ccccc21
d. Cn1ccc2cc(CNCC3CCN(c4ncc(C(=O)NO)cn4)CC3)ccc21
e. CCCn1cc(CNCC2CCN(c3ncc(C(=O)NO)cn3)CC2)c2ccc(Cl)cc21
# input Please list these compounds in decreasing order of IC50. # format: label list in the order the request specifies
# output e, b, c, d, a

A. CCCn1cc(CCNCC2CCN(c3ncc(C(=O)NO)cn3)CC2)c2ccccc21
B. Cn1cc(CNCC2CCN(c3ncc(C(=O)NO)cn3)CC2)c2cc([N+](=O)[O-])ccc21
C. COc1ccc2c(CCNCC3CCN(c4ncc(C(=O)NO)cn4)CC3)cn(C)c2c1
# input Please list these compounds in decreasing order of IC50. # format: label list in the order the request specifies
# output C, A, B

P. COCCn1cc(CNCC2CCN(c3ncc(C(=O)NO)cn3)CC2)c2ccccc21
Q. O=C(NO)c1cnc(N2CCC(CNCc3c[nH]c4ccc(F)cc34)CC2)nc1
R. COc1ccc2c(c1)c(CCNCC1CCN(c3ncc(C(=O)NO)cn3)CC1)cn2C
S. CCC(=O)N(CCc1cn(C)c2ccc(Cl)cc12)CC1CCN(c2ncc(C(=O)NO)cn2)CC1
T. Cn1cc(CNCC2CCN(c3ncc(C(=O)NO)cn3)CC2)c2c(Cl)cccc21
# input Sort entries by IC50 from minimum to maximum value. # format: label list in the order the request specifies
# output P, Q, R, S, T
(P: 10 nM, Q: 31.6 nM, R: 79.4 nM, S: 200 nM, T: 1580 nM)
